Target: full-length form of LIPG (500 amino acids) (Homo sapiens, UniProt Q9Y5X9)
Construct: A pull-down assay was performed on the full-length form of LIPG (500 amino acids); made in house
Sequence (Q9Y5X9 21-500): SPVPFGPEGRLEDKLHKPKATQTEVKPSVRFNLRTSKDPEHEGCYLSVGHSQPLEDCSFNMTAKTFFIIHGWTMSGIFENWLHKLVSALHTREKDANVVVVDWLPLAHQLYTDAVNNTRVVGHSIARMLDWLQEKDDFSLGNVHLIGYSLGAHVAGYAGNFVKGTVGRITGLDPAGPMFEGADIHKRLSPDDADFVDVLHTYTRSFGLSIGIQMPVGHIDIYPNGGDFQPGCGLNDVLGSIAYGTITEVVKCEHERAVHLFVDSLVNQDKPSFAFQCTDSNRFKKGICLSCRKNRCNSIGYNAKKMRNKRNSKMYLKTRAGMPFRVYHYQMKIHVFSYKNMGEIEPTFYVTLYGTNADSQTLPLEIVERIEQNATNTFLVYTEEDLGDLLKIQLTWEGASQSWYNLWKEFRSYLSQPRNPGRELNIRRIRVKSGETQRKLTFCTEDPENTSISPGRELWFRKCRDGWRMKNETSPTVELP
Experiment: Pull-down assay of LIPH4 peptides against full-length LIPG
Format: binding
Settings: culture supernatant of transfected 293T cells, compared with no bait
Description: Human embryonic kidney 293T cells were cultured in DMEM (1.0 g/l glucose) with L-Gln and Sodium Pyruvate, liquid (Nacalai) supplemented with 10% FCS ([…]). Plating was performed in a 1:2 ratio on 6 cm dishes 24 hours before transfection. Lipofectamine 2000 in a volume of 20 μl was added to 500 μl of Opti-MEM 1 and allowed to stand for 5 minutes at room temperature, and the resulting mixture was gently added to a 6 cm dish containing a mixture of 500 μl of Opti-MEM 1 and 8 μg of a plasmid DNA. […]

>  <Sequence>
LNVGYVFYP (LIPH4-15) [KIgk-LIPH4-15]

>  <Measured on>
full-length form of LIPG (500 amino acids) (Homo sapiens, UniProt Q9Y5X9)

>  <binding to LIPG in pull-down assay>
positive

$$$$
>  <Sequence>
RCRQSWNTM (LIPH4-14) [KIgk-LIPH4-14]

>  <Measured on>
full-length form of LIPG (500 amino acids) (Homo sapiens, UniProt Q9Y5X9)

>  <binding to LIPG in pull-down assay>
positive

$$$$
>  <Sequence>
LVPWLRYAY (LIPH4-12) [KIgk-LIPH4-12]

>  <Measured on>
full-length form of LIPG (500 amino acids) (Homo sapiens, UniProt Q9Y5X9)

>  <binding to LIPG in pull-down assay>
positive

$$$$
